biological target: Melatonin receptor type 1A (Homo sapiens); experiment: Displacement of 2-[125I]iodomelatonin from human MT1 receptor expressed in CHO cells by gamma counting; assay type: cell-based; settings: read-out: pKi (converted)
Sequence (P48039 whole entry): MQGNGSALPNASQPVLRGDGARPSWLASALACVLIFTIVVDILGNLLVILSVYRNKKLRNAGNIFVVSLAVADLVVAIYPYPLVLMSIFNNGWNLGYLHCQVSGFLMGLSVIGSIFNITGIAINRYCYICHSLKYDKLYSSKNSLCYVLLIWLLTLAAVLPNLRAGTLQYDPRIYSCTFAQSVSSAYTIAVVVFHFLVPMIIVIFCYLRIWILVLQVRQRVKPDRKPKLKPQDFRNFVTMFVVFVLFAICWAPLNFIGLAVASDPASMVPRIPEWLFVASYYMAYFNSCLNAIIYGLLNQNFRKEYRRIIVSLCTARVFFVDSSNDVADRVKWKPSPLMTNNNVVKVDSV
Outcome Measure: Ki (nM)

{"Cpd Smiles": "COc1ccc2c(c1)c(CCNC(C)=O)c1n2CCCN(C)C1", "Outcome Measure": "Ki", "Measurement Unit": "nM", "Assay Value": 5620}
{"Cpd Smiles": "CCN(C)Cc1[nH]c2ccc(OC)cc2c1CCNC(C)=O", "Outcome Measure": "Ki", "Measurement Unit": "nM", "Assay Value": 1000}
{"Cpd Smiles": "CCCC(=O)NCCc1c2n(c3ccc(OC)cc13)CCN(C)C2", "Outcome Measure": "Ki", "Measurement Unit": "nM", "Assay Value": 6.61}
{"Cpd Smiles": "COc1ccc2[nH]c(CN(C)Cc3ccccc3)c(CCNC(C)=O)c2c1", "Outcome Measure": "Ki", "Measurement Unit": "nM", "Assay Value": 1290}
{"Cpd Smiles": "COc1ccc2[nH]c(CN(C)c3ccc(Cl)cc3)c(CCNC(C)=O)c2c1", "Outcome Measure": "Ki", "Measurement Unit": "nM", "Assay Value": 257}
{"Cpd Smiles": "COc1ccc2c(c1)c(CCNC(C)=O)c1n2CCN(C)C1", "Outcome Measure": "Ki", "Measurement Unit": "nM", "Assay Value": 11.7}

[I] COc1ccc2[nH]c(CN(C)c3ccccc3)c(CCNC(C)=O)c2c1
[II] CCCC(=O)NCCc1c2n(c3ccccc13)CCN(C)C2
Exercise: Which value of Ki is greater, the one for I or the one for II ? Give the label of your selection.
Key: II
(II: 257 nM, I: 15.5 nM)
